Test system: Klebsiella pneumoniae
Assay Summary: Antibacterial activity against extended spectrum beta-lactamase producing Klebsiella pneumoniae ATCC 700603 after 18 hrs by broth microdilution method
Type: functional, organism-based
Setup Conditions: ATCC 700603, 18 h
pIC50: −log10 of the molar value.
Quantity Measured: pIC50

Log: Klebsiella pneumoniae, compound "CCCc1c(Cl)c(O)cc2c1Oc1c(Cl)c(O)c(Cl)c(CCC)c1C(=O)O2" , pIC50 = < 3.59

Log: Klebsiella pneumoniae, compound "CCCc1c(Cl)c(O)c(Cl)c2c1Oc1c(Cl)c(O)c(Cl)c(CCC)c1C(=O)O2" , pIC50 = < 3.59

Log: Klebsiella pneumoniae, compound "CCCc1cc(O)cc2c1Oc1c(Cl)c(O)cc(CCC)c1C(=O)O2" , pIC50 = < 3.59

Log: Klebsiella pneumoniae, compound "CCCc1cc(O)c(Cl)c2c1Oc1c(Cl)c(O)c(Cl)c(CCC)c1C(=O)O2" , pIC50 = 3.59

Log: Klebsiella pneumoniae, compound "CCCc1c(Cl)c(OC)cc2c1Oc1c(Cl)c(O)c(Cl)c(CCC)c1C(=O)O2" , pIC50 = < 3.59

Log: Klebsiella pneumoniae, compound "C[C@H]1COc2c(N3CCN(C)CC3)c(F)cc3c(=O)c(C(=O)O)cn1c23" , pIC50 = 6.00

Log: Klebsiella pneumoniae, compound "CCCc1cc(O)cc2c1Oc1c(Cl)c(O)c(Cl)c(CCC)c1C(=O)O2" , pIC50 = < 3.59

Log: Klebsiella pneumoniae, compound "CCCc1c(Cl)c(OC)c(Cl)c2c1Oc1c(Cl)c(O)c(Cl)c(CCC)c1C(=O)O2" , pIC50 = < 3.59
